// provenance: the supplement of paper PMC10567573

B1: SOAT2 (parent)
chain: SLGKQKVFIIRKSLLDELMEVQHF

- Variants of: B1
- Measurement notes: protein stability index of a GFP-peptide fusion (GPS, HEK-293T) (PSI 1-6); higher = more stable;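 also: lentivirally expressed fusions sorted by FACS into six bins by GFP to DsRed ratio, PSI derived from sequencing read proportions per bin multiplied by bin number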
- Assay context: c terminus: a fixed tail appended
Mark 1 (yes) for reported protein stability index of 2 or greater; mark 0 (no) for anything smaller.

// known answers, use as guide
SLGKQKVFIIRKSLKDELMEVQHF [L15K] ... 1 (yes)
PLGKQKVFIIRKSLLDELMEVQHF [S1P] ... 1 (yes)
SLGKQKVFGIRKSLLDELMEVQHF [I9G] ... 0 (no)
SLGKQKVFIIRISLLDELMEVQHF [K12I] ... 1 (yes)

Shift focus to the following entry.
**Q:** Would you say SLGKQKVFIIGKSLLDELMEVQHF [R11G] shows protein stability index at minimum 2?
**A:** 1 (yes)
